Target: HIV-1 JR-CSF Env I326A (HIV-1 isolate JR-CSF) (UniProt P20871)
Test: cell-based or functional assay
parameter_measured: Fold IC50 increase relative to wild-type (fold)
Write down the numeric answer in fold and omit the unit.

The binder listed as PGT-125 (antibody, V domains shown) VH: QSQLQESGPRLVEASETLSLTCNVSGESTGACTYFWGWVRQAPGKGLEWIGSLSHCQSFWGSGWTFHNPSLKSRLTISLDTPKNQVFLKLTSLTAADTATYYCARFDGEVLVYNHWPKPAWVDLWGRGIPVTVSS VL: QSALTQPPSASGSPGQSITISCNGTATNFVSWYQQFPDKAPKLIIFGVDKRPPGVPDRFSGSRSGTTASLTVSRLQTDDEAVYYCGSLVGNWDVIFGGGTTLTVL has a reported Fold IC50 increase relative to wild-type of 0.9

Measured Fold IC50 increase relative to wild-type, PGT-131 (antibody, V domains shown) VH: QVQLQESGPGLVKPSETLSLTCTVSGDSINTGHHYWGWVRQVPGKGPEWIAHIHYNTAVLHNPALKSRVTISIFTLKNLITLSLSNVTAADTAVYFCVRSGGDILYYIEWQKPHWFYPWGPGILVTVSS VL: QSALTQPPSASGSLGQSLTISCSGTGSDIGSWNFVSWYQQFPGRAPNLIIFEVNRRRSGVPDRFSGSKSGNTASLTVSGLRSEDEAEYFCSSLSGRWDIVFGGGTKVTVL : 1.7

The reported value for PGT-130 (antibody, V domains shown) VH: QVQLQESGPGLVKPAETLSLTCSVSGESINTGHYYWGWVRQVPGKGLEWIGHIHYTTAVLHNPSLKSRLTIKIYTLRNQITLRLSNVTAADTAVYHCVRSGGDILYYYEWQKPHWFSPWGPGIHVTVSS VL: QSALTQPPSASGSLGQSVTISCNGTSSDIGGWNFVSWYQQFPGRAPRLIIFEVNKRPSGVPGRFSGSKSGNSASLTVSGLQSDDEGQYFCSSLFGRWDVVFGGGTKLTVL in terms of Fold IC50 increase relative to wild-type is 1.3
